IC50 listing for selected compounds.
- Tested target: L-type calcium channel
- Procedure details: Inhibition of calcium channel diltiazem binding site
Test readout: IC50

{"columns": ["Compound", "Tested target", "Measured result"],
 "data": [
  ["O=C(O)CCC1(c2ccncc2)CCCN(C(=O)Nc2ccc(Cl)cc2)C1 (stereo not drawn)", "L-type calcium channel", "> 30 µM"],
  ["O=C(O)CC1(c2ccccc2)CCCN(C(=O)Nc2ccc(Cl)cc2)C1 (stereo not drawn)", "L-type calcium channel", "> 30 µM"],
  ["O=C(O)CCC1(c2cccc(C(F)(F)F)c2)CCCN(C(=O)Nc2ccc(Cl)cc2)C1 (stereo not drawn)", "L-type calcium channel", "> 30 µM"]
]}

---

- Procedure details: Inhibition of potassium channel IKr

{"columns": ["Compound", "Operator symbol", "IC50, µM"],
 "data": [
  ["O=C(O)CCC1(c2ccccc2C(F)(F)F)CCCN(C(=O)Nc2ccc(Cl)cc2)C1 (stereo unspecified)", ">", 30],
  ["O=C(O)CCC1(c2ccccc2)CCCN(C(=O)Nc2ccc(Cl)cc2)C1 (stereo in doubt; 2b)", ">", 30],
  ["O=C(O)CCC1(c2cccc(C(F)(F)F)c2)CCCN(C(=O)Nc2ccc(Cl)cc2)C1 (stereo unspecified)", ">", 30],
  ["O=C(O)CC1(c2ccccc2)CCCN(C(=O)Nc2ccc(Cl)cc2)C1 (stereo unspecified)", ">", 30],
  ["CC1(c2ccccc2)CCCN(C(=O)Nc2ccc(Cl)cc2)C1 (stereo unspecified)", "=", 12],
  ["O=C(CCC1(c2ccccc2)CCCN(C(=O)Nc2ccc(Cl)cc2)C1)N1CCOCC1 (stereo unspecified)", "=", 29],
  ["CN(C)CCC1(c2ccccc2)CCCN(C(=O)Nc2ccc(Cl)cc2)C1 (stereo unspecified)", "=", 0.3],
  ["CC1(c2ccccc2)CCCN(C(=O)Nc2ccc(-c3ccccc3)cc2)C1 (stereo unspecified)", "=", 21],
  ["NC(=O)CCC1(c2ccccc2)CCCN(C(=O)Nc2ccc(Cl)cc2)C1 (stereo unspecified)", "=", 7],
  ["CC1(c2ccccc2)CCCN(C(=O)NCCCc2cccnc2)C1 (stereo unspecified)", "=", 5],
  ["CC1(c2ccccc2)CCCN(C(=O)NCc2ccc(-c3ccccc3C(F)(F)F)cc2)C1 (stereo unspecified)", "=", 0.2]
]}

---

- Tested target: Sodium channel protein type 5 subunit alpha (Homo sapiens)
- Sequence (Q14524 whole entry): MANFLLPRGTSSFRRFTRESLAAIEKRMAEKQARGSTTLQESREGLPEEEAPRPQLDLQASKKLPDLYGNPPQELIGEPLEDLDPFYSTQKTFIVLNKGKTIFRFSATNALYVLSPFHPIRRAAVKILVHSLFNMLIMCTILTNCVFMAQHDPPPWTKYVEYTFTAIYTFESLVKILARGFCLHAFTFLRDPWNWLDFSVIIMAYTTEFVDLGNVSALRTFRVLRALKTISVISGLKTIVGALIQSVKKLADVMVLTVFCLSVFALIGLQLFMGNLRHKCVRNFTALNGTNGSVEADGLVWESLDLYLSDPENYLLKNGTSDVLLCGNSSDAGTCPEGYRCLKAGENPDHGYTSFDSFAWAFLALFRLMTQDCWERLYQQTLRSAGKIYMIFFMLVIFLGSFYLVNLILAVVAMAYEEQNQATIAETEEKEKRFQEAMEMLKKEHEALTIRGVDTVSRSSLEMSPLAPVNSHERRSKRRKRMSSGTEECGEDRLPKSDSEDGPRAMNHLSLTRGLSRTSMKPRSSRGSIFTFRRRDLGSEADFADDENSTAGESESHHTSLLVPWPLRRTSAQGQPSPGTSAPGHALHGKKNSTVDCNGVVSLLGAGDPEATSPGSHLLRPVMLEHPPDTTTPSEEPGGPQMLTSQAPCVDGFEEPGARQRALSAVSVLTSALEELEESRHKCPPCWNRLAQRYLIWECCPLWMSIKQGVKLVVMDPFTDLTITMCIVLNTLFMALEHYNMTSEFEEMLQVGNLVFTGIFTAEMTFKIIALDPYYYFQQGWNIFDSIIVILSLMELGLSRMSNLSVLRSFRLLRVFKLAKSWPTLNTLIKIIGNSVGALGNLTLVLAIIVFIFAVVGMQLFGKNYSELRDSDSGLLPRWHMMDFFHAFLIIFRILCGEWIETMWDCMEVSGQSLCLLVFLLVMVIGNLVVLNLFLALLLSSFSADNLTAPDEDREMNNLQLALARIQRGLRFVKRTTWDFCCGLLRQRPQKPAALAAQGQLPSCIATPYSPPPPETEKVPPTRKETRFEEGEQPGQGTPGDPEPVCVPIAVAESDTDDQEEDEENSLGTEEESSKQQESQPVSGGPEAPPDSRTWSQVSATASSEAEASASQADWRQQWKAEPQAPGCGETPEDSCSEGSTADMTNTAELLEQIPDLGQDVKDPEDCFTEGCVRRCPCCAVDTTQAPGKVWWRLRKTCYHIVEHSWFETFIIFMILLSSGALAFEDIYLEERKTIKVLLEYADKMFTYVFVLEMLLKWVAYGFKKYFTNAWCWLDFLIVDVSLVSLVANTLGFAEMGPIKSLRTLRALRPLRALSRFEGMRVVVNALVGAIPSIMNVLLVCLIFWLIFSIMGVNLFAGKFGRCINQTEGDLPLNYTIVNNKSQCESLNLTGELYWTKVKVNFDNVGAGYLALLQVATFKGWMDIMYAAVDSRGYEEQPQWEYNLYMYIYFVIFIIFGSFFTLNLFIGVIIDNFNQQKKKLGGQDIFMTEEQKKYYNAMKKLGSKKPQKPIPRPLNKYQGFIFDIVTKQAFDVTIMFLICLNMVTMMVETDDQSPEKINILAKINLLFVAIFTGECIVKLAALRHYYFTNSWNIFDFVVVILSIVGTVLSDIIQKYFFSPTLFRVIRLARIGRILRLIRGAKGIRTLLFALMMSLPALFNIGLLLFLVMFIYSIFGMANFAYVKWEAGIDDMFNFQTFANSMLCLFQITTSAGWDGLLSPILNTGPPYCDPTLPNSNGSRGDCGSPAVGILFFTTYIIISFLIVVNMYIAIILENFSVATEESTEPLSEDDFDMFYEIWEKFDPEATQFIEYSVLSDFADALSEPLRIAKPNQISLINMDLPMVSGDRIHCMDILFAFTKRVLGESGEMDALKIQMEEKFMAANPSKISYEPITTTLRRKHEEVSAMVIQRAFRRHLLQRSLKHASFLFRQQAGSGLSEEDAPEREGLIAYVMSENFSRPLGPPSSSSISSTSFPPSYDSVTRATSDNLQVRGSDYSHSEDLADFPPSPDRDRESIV
- Procedure details: Inhibition of Nav1.5 channel
Test readout: IC50

{"columns": ["Compound", "Test readout", "Measured result"],
 "data": [
  ["O=C(O)CCC1(c2ccc(-c3ccccc3)cc2)CCCN(C(=O)Nc2ccc(OC(F)(F)F)cc2)C1 (configuration not stated)", "IC50", "< 10 µM"],
  ["CNC(=O)CCC1(c2ccccc2)CCCN(C(=O)Nc2ccc(Cl)cc2)C1 (configuration not stated)", "IC50", "> 10 µM"],
  ["O=C(O)CCC1(c2ccccc2C(F)(F)F)CCCN(C(=O)Nc2ccc(Cl)cc2)C1 (configuration not stated)", "IC50", "> 10 µM"],
  ["O=C(Nc1ccc(Cl)cc1)N1CCCC(CCc2nn[nH]n2)(c2ccccc2)C1 (configuration not stated)", "IC50", "> 10 µM"],
  ["CC1(c2ccccc2)CCCN(C(=O)NCc2ccc(-c3ccc4[nH]ccc4c3)cc2)C1 (configuration not stated)", "IC50", "> 10 µM"],
  ["CC1(c2ccccc2)CCCN(C(=O)Nc2ccc(-c3ccccc3)cc2)C1 (configuration not stated)", "IC50", "< 10 µM"],
  ["N#CCCC1(c2ccccc2)CCCN(C(=O)Nc2ccc(Cl)cc2)C1 (configuration not stated)", "IC50", "> 10 µM"],
  ["CC1(c2ccccc2)CCCN(C(=O)NCc2ccc(-c3ccccc3C(F)(F)F)cc2)C1 (configuration not stated)", "IC50", "> 1 µM"],
  ["CCN(CC)C(=O)CCC1(c2ccccc2)CCCN(C(=O)Nc2ccc(Cl)cc2)C1 (configuration not stated)", "IC50", "> 10 µM"],
  ["CC1(c2ccccc2)CCCN(C(=O)Nc2ccncc2)C1 (configuration not stated)", "IC50", "> 10 µM"],
  ["O=C(O)CC1(c2ccccc2)CCCN(C(=O)Nc2ccc(Cl)cc2)C1 (configuration not stated)", "IC50", "> 10 µM"],
  ["O=C(O)CCC1(c2ccccn2)CCCN(C(=O)Nc2ccc(Cl)cc2)C1 (configuration not stated)", "IC50", "> 10 µM"]
]}

---

Target or system UniProt P11712; recorded quantity IC50.
Sequence (P11712 whole entry): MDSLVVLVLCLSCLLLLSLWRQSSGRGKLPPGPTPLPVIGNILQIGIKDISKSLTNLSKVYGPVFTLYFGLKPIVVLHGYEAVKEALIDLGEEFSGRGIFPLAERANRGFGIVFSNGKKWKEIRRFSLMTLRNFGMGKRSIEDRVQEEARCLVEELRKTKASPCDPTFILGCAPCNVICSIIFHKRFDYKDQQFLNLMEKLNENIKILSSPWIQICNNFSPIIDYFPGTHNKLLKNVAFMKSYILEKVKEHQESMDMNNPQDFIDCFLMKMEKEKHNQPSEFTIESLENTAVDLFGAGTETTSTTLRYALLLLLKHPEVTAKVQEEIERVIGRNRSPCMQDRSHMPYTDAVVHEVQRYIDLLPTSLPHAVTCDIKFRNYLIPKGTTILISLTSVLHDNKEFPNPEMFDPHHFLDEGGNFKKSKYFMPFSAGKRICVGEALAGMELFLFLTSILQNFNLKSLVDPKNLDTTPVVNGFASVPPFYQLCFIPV

{"columns": ["Compound", "IC50"],
 "data": [
  ["CC1(c2ccccc2)CCCN(C(=O)Nc2ccncc2)C1 (centres undefined)", "> 10 µM"],
  ["O=C(O)CCC1(c2ccc(C(F)(F)F)cc2)CCCN(C(=O)Nc2ccc(Cl)cc2)C1 (centres undefined)", "> 10 µM"],
  ["O=C(O)CCC1(c2ccccc2)CCCN(C(=O)Nc2ccc(Cl)cc2)C1 (stereo in doubt)", "> 100 µM"],
  ["O=C(CCC1(c2ccccc2)CCCN(C(=O)Nc2ccc(Cl)cc2)C1)N1CCOCC1 (centres undefined)", "> 10 µM"]
]}

---

- Tested target: Bifunctional epoxide hydrolase 2 (Homo sapiens)
- Sequence (P34913 whole entry): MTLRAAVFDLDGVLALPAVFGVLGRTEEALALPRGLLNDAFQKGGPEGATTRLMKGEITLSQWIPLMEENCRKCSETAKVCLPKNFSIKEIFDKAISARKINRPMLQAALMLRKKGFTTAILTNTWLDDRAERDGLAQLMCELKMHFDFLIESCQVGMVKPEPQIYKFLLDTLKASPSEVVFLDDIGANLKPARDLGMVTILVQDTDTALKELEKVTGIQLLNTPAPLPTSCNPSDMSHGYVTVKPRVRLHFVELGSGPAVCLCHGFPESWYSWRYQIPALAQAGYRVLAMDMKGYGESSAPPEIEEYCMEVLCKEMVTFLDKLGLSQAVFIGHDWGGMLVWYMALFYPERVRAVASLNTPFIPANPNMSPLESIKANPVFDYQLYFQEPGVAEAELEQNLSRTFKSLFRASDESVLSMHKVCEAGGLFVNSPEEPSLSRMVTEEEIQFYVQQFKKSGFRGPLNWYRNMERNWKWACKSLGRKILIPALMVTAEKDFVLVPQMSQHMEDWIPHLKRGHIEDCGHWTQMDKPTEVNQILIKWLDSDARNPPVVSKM
- Procedure details: Inhibition of human soluble epoxide hydrolase
Test readout: IC50 (µM)

{"columns": ["Molecule", "Measured result"],
 "data": [
  ["O=C(O)CCC1(c2cccc(C(F)(F)F)c2)CCCN(C(=O)Nc2ccc(Cl)cc2)C1 (stereo not given)", 0.012],
  ["CN(C)CCC1(c2ccccc2)CCCN(C(=O)Nc2ccc(Cl)cc2)C1 (stereo not given)", 0.012],
  ["CC1(c2ccccc2)CCCN(C(=O)NCCCc2cccnc2)C1 (stereo not given)", 0.007],
  ["O=C(CCC1(c2ccccc2)CCCN(C(=O)Nc2ccc(Cl)cc2)C1)N1CCOCC1 (stereo not given)", 0.008],
  ["O=C(O)CCC1(c2ccccc2C(F)(F)F)CCCN(C(=O)Nc2ccc(Cl)cc2)C1 (stereo not given)", 0.016]
]}

Each recorded value in this set is attributed to ChEMBL document CHEMBL1154229.
